Assay: Solubility of HPPA-Me
Type: physicochemical
Conditions: organic solvent or mixture; in 1,1,2 trichloroethane; read-out: Solubility (HPPA-ME)
outcome measure: solubility (mg/mL)
Respond numerically; units are mg/mL and should not be typed.

Which solubility is reported for this molecule? COC(=O)C(C)Oc1ccc(O)cc1 (racemic) [HPPA-ME]
558

###

Experiment: Conversion of ketoprofen esters in organic solvent/oleic acid media
Assay type: biochemical
Details: Toluene 9 ml, OA 1 ml
Description: To optimize the organic solvent used in the presence of oleic acid a variety of organic solvents were used, along with a variety of ketoprofen esters. […] Samples were then diluted in methanol and analyzed by HPLC as in Example 18. The experiment was also performed using 200 ul of oleic acid and 10ml buffer, which was acidified, extracted with CHCl3 and analyzed by HPLC as above. […]
% Acid values for the molecules below.
Report the value in % with no unit label.

Some entries whose results are on file:
{"columns": ["molecule", "units text", "value measured"],
 "data": [
  ["CC(C(=O)OCCCl)c1cccc(C(=O)c2ccccc2)c1 (stereo not shown)", "%", 1],
  ["CC(C(=O)OCCO)c1cccc(C(=O)c2ccccc2)c1 (stereo not shown)", "%", 0],
  ["CC(C(=O)OCC(O)CO)c1cccc(C(=O)c2ccccc2)c1 (stereo not shown) [Monoglyceride Ester, ketoprofen monoglyceride]", "%", 0]
]}

// returns reported % Acid for input COC(=O)C(C)c1cccc(C(=O)c2ccccc2)c1 (stereo not shown)
0
